value_type: logP
Form rule: numeric answer, no unit written next to it.

Req: For CCCCCCCNc1ccncc1S(=O)(=O)NC(=C[N+](=O)[O-])NCCCCCC , what is its reported logP?
Resp: 1.99

Req: logP for CCCCCCCCNc1ccncc1S(=O)(=O)NC(=C[N+](=O)[O-])NCCCCCCC ?
Resp: 2.59

Req: Fill in the blank: the reported logP of CCCCCCCCNc1ccncc1S(=O)(=O)NC(=C[N+](=O)[O-])NCCCCCC is ____.
Resp: 2.31

Req: Name the reported logP value associated with the compound CCNc1ccncc1S(=O)(=O)NC(=C[N+](=O)[O-])NC(C)C
Resp: -0.48

Req: Would you mind telling me what logP value was observed for CCCCCCCNC(=C[N+](=O)[O-])NS(=O)(=O)c1cnccc1NCCCCCC ?
Resp: 1.97

----------
value_type: logP
API note: the answer field is a bare number with no unit suffix.

Req: Param item = CCCCCCCCNC(=C[N+](=O)[O-])NS(=O)(=O)c1cnccc1NCCCCCCCC ; retrieve measured logP.
Resp: 2.86

Req: Can you look up the measured logP of CCCCCCCNC(=C[N+](=O)[O-])NS(=O)(=O)c1cnccc1NCCCCCCC for me?
Resp: 2.3

Req: Quick one: logP of CCCCCCNC(=C[N+](=O)[O-])NS(=O)(=O)c1cnccc1Nc1cccc(C)c1 ?
Resp: 1.66

Req: I am curious: what logP value has been reported for CCCCCCCCNC(=C[N+](=O)[O-])NS(=O)(=O)c1cnccc1NCCCCCC ?
Resp: 2.27

Req: So what's the measured logP for this one? O=[N+]([O-])C=C(NC1CCCCC1)NS(=O)(=O)c1cnccc1NC1CCCCC1
Resp: 1.59

Req: Which logP is reported for this molecule? CCCCCCNC(=C[N+](=O)[O-])NS(=O)(=O)c1cnccc1NCCCCCC
Resp: 1.67

Data provenance is the SangsterLogP compilation.
